Assay notes: Inhibition of platelet aggregation in human-platelet rich plasma(h-PRP) induced by collagen
Format: functional
Endpoint: IC50 (µM)
Please respond with the number in µM and leave the unit unwritten.

Examples from the recorded data:
C[C@@]1(C(=O)N2CCC(OCC(=O)O)CC2)CCCN1C(=O)c1ccc(C(=N)N)cc1 = 15
N=C(N)c1ccc(C(=O)N[C@@H](CC(=O)O)C(=O)N2CCC(OCC(=O)O)CC2)cc1 = 0.34
NCc1ccc(C(=O)Nc2cccc(C(=O)NCCC(=O)O)c2)cc1 = 9.6

Here is another compound to look at.
Q) For the compound shown here, `COc1ccc(CCNC(=O)[C@H](CC(=O)O)NC(=O)CCNC(=O)c2ccc(C(=N)N)cc2)cc1` , give the reported IC50.
A) 0.1

Numbers sourced from ChEMBL document CHEMBL1125366.
